assay: soluble on expression in E. coli; label from the status in PepcDB or PDB records
endpoint: soluble on expression in E. coli

| record-sequence | endpoint | result |
| --- | --- | --- |
| PDLTAALRDVRQQYESVAAKNLQEAEEWYKSKFADLSEAANRNNDALRQAKQESTEYRRQVQSLTCEVDALK | soluble on expression in E. coli | soluble |
| MDLERLAQRLEGLRGYLDIPQKETRLKELERRLEDPSLWNDPEAARKVSQEAARLRRTVDTFRSLESDLQGLLELMEELPAEEREALKPELEEAAKKLDELYHQTLLNFPHAEKNAILTIQPGAGGTEACDWAEMLLRMYTRFAERQGFQVEVVDLTPGPEAGIDYAQILVKGENAYGLLSPEAGVHRLVRPSPFDASGRRHTSFAGVEVIPEVDEEVEVVLKPEELRIDVMRASGPGAQGVNTTDSAVRVVHLPTGITVTCQTTRSQIKNKELALKILKARLYELERKKREEELKALRGEVRPIEWGSQIRSYVLDKNYVKDHRTGLMRHDPENVLDGDLMDLIWAGLEWKAGRRQGTEEVEAE | soluble on expression in E. coli | soluble |

* * *

assay: soluble on expression in E. coli; label from the status in PepcDB or PDB records

| record-sequence | soluble on expression in E. coli |
| --- | --- |
| MSLSKFTEMMKNRRSIYALGENLPISKEEVTALVKEVVRESPTAFNSQTQRVVFLFGDAHKKLWAMTEDALKPLTPAEAFPNTQAKLQGFAAGAGTILFFEDTDIVKNLQDSFPLYADNFPVWSEQATGLTQANVWTALAQENIGANLQHYNPVIDEAVAAEWSIPANWNLRAQMVIGSIEAPAGEKEYMEDSARFKEFNEGGSHHHHHH | soluble |
| MFRLSALYRYPIKSSAAESLERVALDALGVVGDRRWMAVDTETGRFFTQRLLPQLGRIQARWAAPEVLRLNAPGMSELSLEVPAADANLRGVTVWRDTLQAPDAGDAAADWLTRFLGRP | not soluble |
| MAHHHHHHMATARSYFYYLDAHGNLFPVTDIKGLIDGTNIPAGPIQLRDRAFLDFFYLRLKRSDVEDAAACSNVSDRREEGELLLHSGAKLTPQEVVQHFPYVSICGPERNFLKAEEAPLVFVNYTSGHPKCKQQNGTLAFGESLWEDFQPQALVVTREGKLFHPITKLKNLIATQNGAGDAVPRGLVEAQVVKKLGLELVCDSAKSGYYVLEWKGQKQRIPYFDEL | not soluble |
| MSKHTLIRRAVLEKLESVTGAPVTLFDGLPAFVEQEDLPAIAVWLTDAQYTGLMTDEDDWQATLHTAVFLRAQAPDTELDIWMEEKIFPALEEVSGLERLIDTMTPLGYDYQRDSEMATWGMAEITYRITYTN | soluble |
| SNAMSLEKLDTNTFEQLIYDEGKACLVMFSRKNCHVCQKVTPVLEELRLNYEESFGFYYVDVEEEKTLFQRFSLKGVPQILYFKDGEYKGKMAGDVEDDEVEQMIADVLED | soluble |
